# TESTED SYSTEM: Serine/threonine-protein kinase 38 (Homo sapiens, UniProt Q15208)
# Sequence (Q15208 whole entry): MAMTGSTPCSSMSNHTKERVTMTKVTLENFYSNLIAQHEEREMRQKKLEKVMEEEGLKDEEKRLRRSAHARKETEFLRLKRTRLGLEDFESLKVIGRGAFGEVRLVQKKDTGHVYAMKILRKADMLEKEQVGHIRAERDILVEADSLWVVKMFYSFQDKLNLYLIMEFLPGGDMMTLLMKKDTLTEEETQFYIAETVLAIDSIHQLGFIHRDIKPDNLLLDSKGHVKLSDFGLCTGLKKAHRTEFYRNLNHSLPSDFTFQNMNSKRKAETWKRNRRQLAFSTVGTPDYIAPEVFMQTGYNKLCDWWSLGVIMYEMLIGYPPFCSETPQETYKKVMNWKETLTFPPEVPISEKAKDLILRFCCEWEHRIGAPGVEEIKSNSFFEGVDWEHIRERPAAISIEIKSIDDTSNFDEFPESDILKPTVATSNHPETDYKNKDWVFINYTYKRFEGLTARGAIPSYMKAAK
PARAMETER: IC50 (µM)
Give the value in µM but do not write µM after it.

Form field - read-out: IC50; system: Serine/threonine-protein kinase 38 (Homo sapiens, UniProt Q15208); submitted item: Cn1cc(-c2cccc(NC(=O)c3cc4c(nc3O[C@H]3C[C@@H](O)C3)OC(C)(C)C4)n2)cn1 16.5

---

# TESTED SYSTEM: UniProtKB P23458
# Sequence (P23458 whole entry): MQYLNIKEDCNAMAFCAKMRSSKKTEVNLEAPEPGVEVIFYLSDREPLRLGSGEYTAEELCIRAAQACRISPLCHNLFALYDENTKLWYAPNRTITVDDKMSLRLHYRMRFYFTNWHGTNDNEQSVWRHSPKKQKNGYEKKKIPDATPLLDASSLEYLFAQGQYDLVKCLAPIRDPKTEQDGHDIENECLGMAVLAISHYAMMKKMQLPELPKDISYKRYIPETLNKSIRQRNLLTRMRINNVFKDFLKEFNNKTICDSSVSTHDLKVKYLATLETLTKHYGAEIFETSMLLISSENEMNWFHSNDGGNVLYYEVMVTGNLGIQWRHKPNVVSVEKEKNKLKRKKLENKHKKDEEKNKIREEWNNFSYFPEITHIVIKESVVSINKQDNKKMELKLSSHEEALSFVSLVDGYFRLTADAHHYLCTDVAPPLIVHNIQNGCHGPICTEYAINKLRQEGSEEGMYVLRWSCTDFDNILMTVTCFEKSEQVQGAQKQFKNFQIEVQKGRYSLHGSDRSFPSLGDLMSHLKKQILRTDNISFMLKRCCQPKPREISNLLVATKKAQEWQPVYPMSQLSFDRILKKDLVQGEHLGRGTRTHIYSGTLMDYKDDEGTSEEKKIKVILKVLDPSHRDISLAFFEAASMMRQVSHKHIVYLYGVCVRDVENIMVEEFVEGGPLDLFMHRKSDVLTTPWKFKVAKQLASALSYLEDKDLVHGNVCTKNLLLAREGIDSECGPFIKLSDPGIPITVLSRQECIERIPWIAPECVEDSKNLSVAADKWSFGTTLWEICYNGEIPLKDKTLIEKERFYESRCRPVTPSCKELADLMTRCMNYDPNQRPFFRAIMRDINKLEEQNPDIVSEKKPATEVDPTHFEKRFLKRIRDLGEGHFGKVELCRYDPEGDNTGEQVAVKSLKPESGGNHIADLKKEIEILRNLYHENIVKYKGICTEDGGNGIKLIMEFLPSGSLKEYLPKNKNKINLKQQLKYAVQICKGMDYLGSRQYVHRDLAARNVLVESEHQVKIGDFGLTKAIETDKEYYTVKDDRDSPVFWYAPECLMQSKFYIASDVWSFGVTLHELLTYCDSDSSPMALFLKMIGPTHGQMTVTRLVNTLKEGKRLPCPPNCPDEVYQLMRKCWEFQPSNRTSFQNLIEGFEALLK
pIC50: −log10 of the molar value.
PARAMETER: pIC50

Form field: reported pIC50 of Cn1cc(-c2cccc(NC(=O)c3cc4c(nc3O[C@H]3C[C@@H](O)C3)OC(C)(C)C4)n2)cn1 < 4.52

---

# TESTED SYSTEM: MAP kinase-activated protein kinase 2 (Homo sapiens, UniProt P49137)
# Sequence (P49137 whole entry): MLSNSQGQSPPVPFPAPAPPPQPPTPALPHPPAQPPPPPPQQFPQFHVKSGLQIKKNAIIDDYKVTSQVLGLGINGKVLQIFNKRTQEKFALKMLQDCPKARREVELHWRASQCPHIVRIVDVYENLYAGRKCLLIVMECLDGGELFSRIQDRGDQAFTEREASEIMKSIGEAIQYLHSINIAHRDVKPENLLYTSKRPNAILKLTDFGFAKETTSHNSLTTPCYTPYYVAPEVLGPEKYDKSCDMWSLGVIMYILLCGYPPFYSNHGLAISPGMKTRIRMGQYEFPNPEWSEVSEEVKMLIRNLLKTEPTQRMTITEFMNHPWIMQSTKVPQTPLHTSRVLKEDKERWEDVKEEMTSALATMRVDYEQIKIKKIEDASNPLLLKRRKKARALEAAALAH
# ASSAY NAME: Inhibition of MAPKAP-K2 (unknown origin) by scintillation proximity assay
pIC50: −log10 of the molar value.
PARAMETER: pIC50

So what does the record say about pIC50 for Cn1cc(-c2cccc(NC(=O)c3cc4c(nc3O[C@H]3C[C@@H](O)C3)OC(C)(C)C4)n2)cn1 ? < 4.52

---

# TESTED SYSTEM: Dual specificity tyrosine-phosphorylation-regulated kinase 1A (Homo sapiens, UniProt Q13627)
PARAMETER: IC50 (nM)
Give the quantity in nM, number only.

Would you kindly share the measured IC50 for Cn1cc(-c2cccc(NC(=O)c3cc4c(nc3O[C@H]3C[C@@H](O)C3)OC(C)(C)C4)n2)cn1 ? 34

---

# TESTED SYSTEM: Receptor-type tyrosine-protein kinase FLT3 (Homo sapiens, UniProt P36888)
# Sequence (P36888 whole entry): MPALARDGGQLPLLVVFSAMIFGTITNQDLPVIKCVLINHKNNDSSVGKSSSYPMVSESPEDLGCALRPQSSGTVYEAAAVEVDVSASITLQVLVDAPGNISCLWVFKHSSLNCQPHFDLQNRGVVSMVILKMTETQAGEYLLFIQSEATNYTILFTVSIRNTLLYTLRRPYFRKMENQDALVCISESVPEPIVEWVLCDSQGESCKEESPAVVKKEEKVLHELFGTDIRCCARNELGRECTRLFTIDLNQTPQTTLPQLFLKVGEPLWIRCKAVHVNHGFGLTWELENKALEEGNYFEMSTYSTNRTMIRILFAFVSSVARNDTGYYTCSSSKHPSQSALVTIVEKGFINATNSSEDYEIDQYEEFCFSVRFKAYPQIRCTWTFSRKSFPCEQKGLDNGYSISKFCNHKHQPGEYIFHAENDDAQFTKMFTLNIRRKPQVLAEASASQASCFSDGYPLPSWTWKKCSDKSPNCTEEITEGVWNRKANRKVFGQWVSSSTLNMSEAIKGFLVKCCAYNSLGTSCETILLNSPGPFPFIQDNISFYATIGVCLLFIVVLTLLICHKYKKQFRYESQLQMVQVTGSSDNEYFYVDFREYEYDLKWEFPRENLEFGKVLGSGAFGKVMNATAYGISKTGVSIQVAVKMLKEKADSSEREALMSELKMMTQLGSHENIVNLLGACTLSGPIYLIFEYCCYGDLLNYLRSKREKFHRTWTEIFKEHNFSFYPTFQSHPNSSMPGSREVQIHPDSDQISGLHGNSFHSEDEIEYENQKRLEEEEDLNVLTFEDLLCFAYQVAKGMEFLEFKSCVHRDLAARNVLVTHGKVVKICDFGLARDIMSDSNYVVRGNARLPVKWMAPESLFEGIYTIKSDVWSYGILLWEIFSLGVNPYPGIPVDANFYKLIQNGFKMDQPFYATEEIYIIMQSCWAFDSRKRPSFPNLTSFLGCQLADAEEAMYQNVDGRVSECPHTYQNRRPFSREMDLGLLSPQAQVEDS
PARAMETER: pIC50
Keep it numeric: pIC50 is minus log10 of the concentration in mol/L.

Find the recorded pIC50 belonging to Cn1cc(-c2cccc(NC(=O)c3cc4c(nc3O[C@H]3C[C@@H](O)C3)OC(C)(C)C4)n2)cn1 and report it. 7.96

---

# ASSAY NAME: Inhibition of LPS-induced TNFalpha protein expression in immortalized mouse BMDM cells preincubated for 2 hrs followed by LPS stimulation and measured after 16 hrs by ELISA
# Format: functional, cell-based
PARAMETER: IC50 (µM)
Express your answer in µM, writing the number without its unit.

// returns reported IC50 for input Cn1cc(-c2cccc(NC(=O)c3cc4c(nc3O[C@H]3C[C@@H](O)C3)OC(C)(C)C4)n2)cn1 0.495

---

# TESTED SYSTEM: UniProtKB P49759
# Sequence (P49759 whole entry): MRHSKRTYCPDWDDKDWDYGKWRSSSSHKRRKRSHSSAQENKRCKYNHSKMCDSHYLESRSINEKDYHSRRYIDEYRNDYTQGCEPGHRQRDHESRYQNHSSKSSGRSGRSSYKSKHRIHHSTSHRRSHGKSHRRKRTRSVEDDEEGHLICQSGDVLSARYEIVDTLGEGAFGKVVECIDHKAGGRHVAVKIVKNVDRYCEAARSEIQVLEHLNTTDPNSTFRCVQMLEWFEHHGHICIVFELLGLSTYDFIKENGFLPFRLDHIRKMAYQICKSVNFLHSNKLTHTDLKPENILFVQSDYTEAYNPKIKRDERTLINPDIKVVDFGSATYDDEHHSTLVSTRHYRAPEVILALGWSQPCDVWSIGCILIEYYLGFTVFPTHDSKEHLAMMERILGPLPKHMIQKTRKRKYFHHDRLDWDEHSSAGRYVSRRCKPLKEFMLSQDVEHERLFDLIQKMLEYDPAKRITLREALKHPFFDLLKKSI
# ASSAY NAME: Inhibition of CLK1 (unknown origin) by scintillation proximity assay
PARAMETER: IC50 (nM)
Value expressed in nM; do not type the unit.

// lookup IC50 for Cn1cc(-c2cccc(NC(=O)c3cc4c(nc3O[C@H]3C[C@@H](O)C3)OC(C)(C)C4)n2)cn1 9

---

# TESTED SYSTEM: cAMP-dependent protein kinase catalytic subunit beta (Homo sapiens, UniProt P22694)
# ASSAY NAME: Inhibition of PKA-C beta (unknown origin) by scintillation proximity assay
PARAMETER: IC50

What does the record list as IC50 for Cn1cc(-c2cccc(NC(=O)c3cc4c(nc3O[C@H]3C[C@@H](O)C3)OC(C)(C)C4)n2)cn1 ? > 30 µM

---

# ASSAY NAME: Plasma protein binding in CD-1 mouse by LC-MS analysis
# Type: ADME, cell-free
# REPORTED CONDITIONS: read-out: PPB (converted)
PARAMETER: fraction unbound
Reply briefly: the number, and no unit.

Could you share which fraction unbound value was measured for Cn1cc(-c2cccc(NC(=O)c3cc4c(nc3O[C@H]3C[C@@H](O)C3)OC(C)(C)C4)n2)cn1 ? 0.02

---

# ASSAY NAME: Plasma protein binding in human by LC-MS analysis
# Assay type: ADME, cell-free
# REPORTED CONDITIONS: read-out: PPB
PARAMETER: fraction unbound
Enter a number only.

What value of measured fraction unbound is listed for Cn1cc(-c2cccc(NC(=O)c3cc4c(nc3O[C@H]3C[C@@H](O)C3)OC(C)(C)C4)n2)cn1 ? 0.01
